target: T1, biotinylated goat anti-human kappa light chain; test: ELISA, positive control; further: test concentration or dose not given here
T1 construct: positive control of the ELISA
Each entry below lists one item and its recorded optical density value.
Give the value, in units of OD, as a plain number.

Use these answered entries as a reference point.
binder: 368_B09 (antibody, V domains shown, Group III) VH: EVQLLESGGGLVQPGGSLRLSCAASGFTFDSYGMNWVRQAPGKGLEWVSNINYNGGYKGYADSVKGRFTISRDNSKNTLYLQMNSLRAEDTAVYYCARGANWHDTHLDYWGQGTLVTVSS VL: DIQMTQSPSSLSASVGDRVTITCRASQSILSYLNWYQQKPGKAPKLLIYAATSRHSGVPSRFSGSGSGTDFTLTISSLQPEDFATYYCQQSYDTPLTFGGGTKVEIK
measure-unit: OD
optical density: 3.43

binder: 368_A04 (antibody, V domains shown, Group III) VH: EVQLLESGGGLVQPGGSLRLSCAASGFTFDDYSMNWVRQAPGKGLEWVAGINYNGGYKSYADSVKGRFTISRDNSKNTLYLQMNSLRAEDTAVYYCARGANWHDTHLDYWGQGTLVTVSS VL: DIQMTQSPSSLSASVGDRVTITCRASQSILTYLNWYQQKPGKAPKLVIYAVTSRASGVPSRFSGSGSGTDFTLTISSLQPEDFATYYCQQSYELPLTFGGGTKVEIK
measure-unit: OD
optical density: 3.56

binder: 375_G05 (antibody, V domains shown, Group III) VH: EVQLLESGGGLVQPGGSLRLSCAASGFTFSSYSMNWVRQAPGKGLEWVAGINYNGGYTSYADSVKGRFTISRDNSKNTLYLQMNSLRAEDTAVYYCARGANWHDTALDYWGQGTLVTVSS VL: DIQMTQSPSSLSASVGDRVTITCRASQSIVSYLNWYQQKPGKAPKLLIYAVTSRASGVPSRFSGSGSGTDFTLTISSLQPEDFATYYCQQSYDSPLTFGGGTKVEIK
measure-unit: OD
optical density: 3.26

binder: 375_G04 (antibody, V domains shown, Group III) VH: EVQLLESGGGLVQPGGSLRLSCAASGFTFSSYGMNWVRQAPGKGLEWVASINYNSGYTGYADSVKGRFTISRDNSKNTLYLQMNSLRAEDTAVYYCARGANWHDTHLDYWGQGTLVTVSS VL: DIQMTQSPSSLSASVGDRVTITCRASQSIVSYVNWYQQKPGKAPKLLIYAATSLASGVPSRFSGSGSGTDFTLTISSLQPEDFATYYCQQSYDSPLTFGGGTKVEIK
measure-unit: OD
optical density: 3.19

q: What value of optical density has been recorded for this entry: 374_B10 (antibody, V domains shown, Group III) VH: EVQLLESGGGLVQPGGSLRLSCAASGFTFSSYSMNWVRQAPGKGLEWVSSINYNSGYTSYADSVKGRFTISRDNSKNTLYLQMNSLRAEDTAVYYCARGANWHDTHLDYWGQGTLVTVSS VL: DIQMTQSPSSLSASVGDRVTITCRASQSILTYVNWYQQKPGKAPKLVIYAATSLASGVPSRFSGSGSGTDFTLTISSLQPEDFATYYCQQSYDTPLTFGGGTKVEIK
a: 3
